B1: Calcium-binding protein 2, residues 155 to 219; numbered along this chain, Q9NPB3 (parent)
chain: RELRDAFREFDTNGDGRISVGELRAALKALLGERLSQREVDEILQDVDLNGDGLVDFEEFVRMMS

Variants of: B1
Assay: abundance fitness (aPCA) (normalised: wild type 0, dead -1); higher = more abundant; growth selection in yeast, the domain comes from the species named
Settings: Homo sapiens
Binned abundance fitness; ranges: category 1 = under -0.3, category 2 = from -0.3 up to -0.04, category 3 = -0.04 and over

>  <CHANGES>
G51F

>  <QUALITATIVE LABEL>
category 2

$$$$
>  <CHANGES>
A6P

>  <QUALITATIVE LABEL>
category 1

$$$$
>  <CHANGES>
R4T

>  <QUALITATIVE LABEL>
category 2

$$$$
>  <CHANGES>
K28N

>  <QUALITATIVE LABEL>
category 2

$$$$
>  <CHANGES>
D48N

>  <QUALITATIVE LABEL>
category 3

$$$$
>  <CHANGES>
L27E

>  <QUALITATIVE LABEL>
category 1

$$$$
>  <CHANGES>
A25S

>  <QUALITATIVE LABEL>
category 3

$$$$
>  <CHANGES>
E58H

>  <QUALITATIVE LABEL>
category 3

$$$$

Quick check: band for `E33D`
category 3

Quick check: band for `V20C`
category 3

Quick check: band for `D46I`
category 1

Quick check: band for `K28T`
category 3

Quick check: band for `R38C`
category 2

Quick check: band for `D11L`
category 1

Quick check: band for `R17M`
category 2

Quick check: band for `L3Q`
category 3

Quick check: band for `D11E`
category 1
